subject of test: human recombinant 5-HT2C receptor (Homo sapiens (Human), UniProt P28335)
Sequence (P28335 whole entry, looked up): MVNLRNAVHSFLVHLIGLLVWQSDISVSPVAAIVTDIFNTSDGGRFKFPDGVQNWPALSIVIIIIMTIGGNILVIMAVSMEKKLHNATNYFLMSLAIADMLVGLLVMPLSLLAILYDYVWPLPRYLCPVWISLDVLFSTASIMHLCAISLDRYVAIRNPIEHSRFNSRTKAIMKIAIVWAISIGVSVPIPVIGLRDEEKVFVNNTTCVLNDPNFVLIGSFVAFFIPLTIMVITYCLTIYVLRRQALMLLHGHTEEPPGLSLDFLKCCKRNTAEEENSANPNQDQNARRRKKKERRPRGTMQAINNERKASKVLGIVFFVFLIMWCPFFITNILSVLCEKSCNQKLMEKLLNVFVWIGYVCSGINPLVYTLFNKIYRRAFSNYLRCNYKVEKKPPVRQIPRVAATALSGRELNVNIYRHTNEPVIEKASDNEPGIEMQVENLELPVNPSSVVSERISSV
condition description: read-out: Binding affinity to serotonin receptor 5-HT2C: IC50
pIC50: −log10 of the molar value. Where a name gives a salt, the structure may show the parent alone.
Listed here: items and their measured pIC50.
experimental endpoint: pIC50

>>> print(df.to_string())
                                   molecule  measured_number
0  COc1ccccc1-n1c(C)nc(C(=O)NCCCN2CCN(c3cccc(Cl)c3Cl)CC2)c1C [Example 145, dihydrochloride]             7.59
1  Cc1nc(C(=O)NCCCN2CCN(c3cccc(Cl)c3Cl)CC2)c(C)n1-c1ccccc1             7.92
2  CCc1nc(C(=O)NCCN2CCN(c3cccc(Cl)c3Cl)CC2)c(C)n1-c1ccccc1             7.21
3  Cc1cccc(N2CCN(CCNC(=O)c3nc(C)n(-c4ccc5c(c4)OCO5)c3C)CC2)c1C [Example 115, dihydrochloride]             7.57

----------
subject of test: human recombinant 5-HT2C receptor (Homo sapiens (Human), UniProt P28335)
condition description: read-out: Binding affinity to serotonin receptor 5-HT2C: IC50
pIC50: −log10 of the molar value. Structures can show the parent of a compound that is named as a salt.
Consider the following compounds and their measured pIC50 readings.
experimental endpoint: pIC50

>>> df
                                   compound  experimental_endpoint  reading_qualifier  measured_number
0  CCc1c(C(=O)NCCCN2CCN(c3cccc(Cl)c3Cl)CC2)nc(-c2ccc(Cl)cc2Cl)n1-c1ccc(Br)cc1                  pIC50                  =             6.50
1  CCCn1c(C)nc(C(=O)NCC(O)CN2CCN(c3cccc(C)c3C)CC2)c1C (centres unmarked) [Example 96, dihydrochloride]                  pIC50                  <             5.00
2  CCCc1nc(C(=O)NCCCN2CCN(c3cccc(C)c3C)CC2)cn1-c1ccccc1 [Example 117, dihydrochloride]                  pIC50                  =             6.99
3  CCCc1nc(C(=O)NCC(O)CN2CCN(c3cccc(C)c3C)CC2)cn1-c1ccc(Cl)cc1 (centres unmarked) [Example 111, dihydrochloride]                  pIC50                  =             6.18
4  Cc1cccc(N2CCN(CC(O)CNC(=O)c3nc(-c4ccccc4)n(-c4ccccc4)c3C)CC2)c1C (centres unmarked) [Example 155, dihydrochloride]                  pIC50                  =             6.28
5  Cc1ccc(-n2c(C)nc(C(=O)NCCCN3CCN(c4cccc(C)c4C)CC3)c2C)cc1 [Example 147, dihydrochloride]                  pIC50                  =             7.11
6  COc1cc(OC)cc(-n2c(C)nc(C(=O)NCCN3CCN(c4cccc(C)c4C)CC3)c2C)c1 [Example 112, dihydrochloride]                  pIC50                  =             7.20
7  CCCc1nc(C(=O)NCCCN2CCN(c3cccc(Cl)c3Cl)CC2)c(C)n1-c1ccccc1 [Example 7, dihydrochloride]                  pIC50                  =             6.72
